These entries and their values trace back to patent US11987589B2.

# PROCEDURE DETAILS: in vivo
# CONDITION DETAILS: male, ICR, mouse, iv, 2 mg/kg, B/P Ratio, individual animal
OBSERVATION TYPE: Kp at 4 h
Just the number, please, no unit after it.

Input "N#Cc1ccc(-c2cc(=O)c3ccc4[nH]c(C(F)(F)F)nc4c3o2)cc1" . Output Kp at 4 h: 0.02

----------
So I've got a bunch of compounds here, and I need their half-life values.
# PROCEDURE DETAILS: Plasma Stability (human)
# Type: in vitro ADME

# compound N#Cc1ccc(-c2cc(=O)c3ccc4[nH]c(C(F)(F)F)nc4c3o2)cc1 [CF3-CN] ; its half-life = > 8 h

half-life reading for CC(C)[N+](C)(CCOC(=O)C1c2ccccc2Oc2ccccc21)C(C)C [Propantheline, reference compound] : 0.398 h

# half-life (compound: Cn1c(=O)[nH]c2ccc3c(=O)cc(-c4ccc(C#N)cc4)oc3c21 [RM-CN] ) is > 8 h

----------
# PROCEDURE DETAILS: in vivo
# CONDITION DETAILS: male, ICR, mouse, iv, 2 mg/kg, B/P Ratio, Mean
OBSERVATION TYPE: Kp at 1 h
Answer field: number only, no words.

Entry "N#Cc1ccc(-c2cc(=O)c3ccc4[nH]c(C(F)(F)F)nc4c3o2)cc1" , Kp at 1 h reported as 0.01
